Tested on: EBV
test parameters: normalized mean of EBV replication readout; peptide screen
outcome measure: EBV Norm MEAN

INSERT INTO results (substance, tested_system, outcome_measure, readout_value) VALUES
  ('MNNQRKKAKNTPFNM [CPEP62]', 'EBV', 'EBV Norm MEAN', 1.218),
  ('WGCSGKLICTTTVPW [CPEP84]', 'EBV', 'EBV Norm MEAN', 0.6808),
  ('CPEP69: peptide of the viral peptide library; sequence page not shown (MRHIICHGGVITEE)', 'EBV', 'EBV Norm MEAN', 0.4275),
  ('PDSDPQIPPPYVEPTA [CPEP138]', 'EBV', 'EBV Norm MEAN', 0.9708),
  ('GHRMAWDMMMNWSP [CPEP107]', 'EBV', 'EBV Norm MEAN', 0.9961),
  ('NKVGSLQYLALAALI [CPEP60]', 'EBV', 'EBV Norm MEAN', 0.706),
  ('GGLEPLSEKHFRETEV [CPEP112]', 'EBV', 'EBV Norm MEAN', 0.8103),
  ('RDVLCLRPVGAESR [CPEP94]', 'EBV', 'EBV Norm MEAN', 0.9161);

# evaluate next
Give the measured EBV Norm MEAN of LERVIFPSVKIATLV [CPEP53] .
1.031

* * *

Measured microsomal CLint at 1 µM, listed per entry.
experiment summary: Microsomal stability, human liver microsomes
Type: in vitro ADME
test parameters: both sexes, pH 7.4, read-out: CLint hLM
Experimental: Tested compounds (1 μM) were incubated with pooled human liver microsomes (Xenotech; pooled male and female) and pooled mouse liver microsomes (Xenotech; male CD-1 mice). Microsomes (final protein concentrations of 0.25 and 0.5 mg/ml, 0.1 M phosphate buffer pH 7.4) containing tested compound (final substrate concentration 1 μM; final DMSO concentration 0.25 %) were preincubated at 37 °C prior to the addition of NADPH (final concentration 1 mM) to initiate the reaction. […]

I would be grateful if you could share the reported microsomal CLint at 1 µM for COc1ccc(C(=O)Nc2sc3c(c2C(=O)O)CCC(C(C)(C)C)C3)cc1 (stereo not drawn) [dEF2665] .
38 µL/min/mg

Moving on to the next compound: COc1ccc(C(=O)Nc2sc3c(c2C(=O)O)CCC(C)(C)C3)cc1OC [dEF2788]
< 14 µL/min/mg

Then this compound: O=C(Nc1ccc(Cl)cc1)c1c(NC(=O)C2CCCCC2C(=O)O)sc2c1CCC2 (stereo not drawn) [dEF384]
< 14 µL/min/mg

* * *

experiment summary: PK parameters in mice
Format: in vivo, male Swiss (CD-1) mice
test parameters: male, Swiss (CD-1), plasma; mouse, iv 0.25 mg/kg; read-out: T1/2 iv (converted)
outcome measure: half-life (min)
Express the result in min but write the number alone.

If you can, please state the reported half-life value of O=C(Nc1scc(C2CCc3ccccc3C2)c1C(=O)O)c1ccccc1 (racemic) .
228

* * *

experiment summary: PK parameters in mice
Format: in vivo, male Swiss (CD-1) mice
test parameters: male, Swiss (CD-1), plasma; mouse, po 2 mg/kg, iv 0.25 mg/kg
outcome measure: bioavailability
Field note: include the unit after the figure.

INSERT INTO measurements (compound, outcome_measure, readout_value) VALUES
  ('O=C(Nc1scc(C2CCc3ccccc3C2)c1C(=O)O)c1ccccc1 (centres unmarked) [dEF3122]', 'bioavailability', '36%');

// moving on: another record for bioavailability
// bioavailability lookup, key: O=C(Nc1scc(C2CCc3ccccc3C2)c1C(=O)O)c1ccccc1 (racemic) [dEF2905]
33%

* * *

Test system: EBV
test parameters: normalized mean of EBV replication readout; peptide screen
Threshold 0.8. EBV Norm MEAN below it: 1. EBV Norm MEAN at it or above: -1.

INSERT INTO assay_data (substance, class_label) VALUES
  ('CPEP136: peptide of the viral peptide library; sequence page not shown (VTNDCPNSSIVYE)', -1),
  ('LTEDRWNKPQKTKGH [CPEP141]', 1),
  ('MAGRSGDSDEELIR [CPEP91]', 1),
  ('GPSDSGAGRAAEDRKCL [CPEP137]', -1),
  ('DILDLWIYHTQGYFPDWQ [CPEP114]', -1),
  ('SLQYLALAALITPKK [CPEP46]', -1);

Okay, next one:
Hi there! Is EBV Norm MEAN for DKELYPLTSLRSLFG [CPEP65] below 0.8, do you know?
1

* * *

experiment summary: PK parameters in mice
Assay type: in vivo, male Swiss (CD-1) mice
test parameters: male, Swiss (CD-1), plasma; mouse, po 5 mg/kg (dose for AUC)
outcome measure: Cmax (ng/mL)
Report the figure in ng/mL without appending any unit label.

What Cmax value was documented for this compound, COc1ccc(C(=O)Nc2sc3c(c2C(=O)O)CCC(C)(C)C3)cc1OC ?
71

* * *

Test system: influenza A H1N1 virus
test parameters: 0,823 µM peptide, 48 hr post-treatment, A549
Each item that follows carries a reported Neuraminidase activity normalized to vehicle.

Take a look at these entries with their results.
INSERT INTO measurements (substance, readout_value) VALUES
  ('MNNQRKKAKNTPFNM [CPEP62]', '1,1108'),
  ('CPEP142: peptide of the viral peptide library; sequence page not shown (LGIVCPICSQKP)', '0,9385'),
  ('HFEPPTLHELYDLDVTAP [CPEP115]', '1,141');

Would you kindly look at the next entry?
I have this substance here, CPEP126: peptide of the viral peptide library; sequence page not shown (TQNLYPDLSEIKK) , and I need its recorded Neuraminidase activity normalized to vehicle.
0,9498

* * *

Test system: influenza A H1N1 virus
test parameters: 22,2 µM peptide, 48 hr post-treatment, A549
Neuraminidase activity normalized to vehicle values, listed per item

Give its Neuraminidase activity normalized to vehicle value. Item: NKVGSLQYLALAALI [CPEP60]
0,7636

What do you have for AAAVAFL [CPEP117] ?
0,8782

* * *

experiment summary: Cryopreserved hepatocyte stability, mouse
Assay type: in vitro ADME
test parameters: cryopreserved hepatocytes, murine hepatocytes, read-out: CLint mHep
outcome measure: hepatocyte CLint at 1 µM

Look up hepatocyte CLint at 1 µM: O=C(Nc1scc(C2CCc3ccccc3C2)c1C(=O)O)c1ccccc1 (stereo not drawn) [dEF3122]
< 5 µL/min/1e6 cells

Another compound: O=C(Nc1scc(C2CCc3ccccc3C2)c1C(=O)O)c1ccccc1 (racemic) [dEF2905]
< 5 µL/min/1e6 cells

And then COc1ccc(C(=O)Nc2sc3c(c2C(=O)O)CCC(C)(C)C3)cc1OC [dEF2788] , what is it?
116 µL/min/1e6 cells

* * *

# maps each entry to its Neuraminidase activity normalized to vehicle
System: influenza A H1N1 virus
test parameters: 22,2 µM peptide, 48 hr post-treatment, A549

Before answering, review these 3 worked examples.
INSERT INTO measurements (substance, readout_value) VALUES
  ('CPEP136: peptide of the viral peptide library; sequence page not shown (VTNDCPNSSIVYE)', '0,8466'),
  ('YFADLLI [CPEP50]', '0,8095'),
  ('CPEP103: viral library peptide from HCV NS4A targeting EEF1A1 (GCVVIVGRIVLSGK)', '0,2828');

GET /values?readout=Neuraminidase activity normalized to vehicle&item= RDVLCLRPVGAESR [CPEP94]
0,8926

Let us now turn to EDPNEE [CPEP68]
0,8576

* * *

experiment summary: Cryopreserved hepatocyte stability, human
Type: in vitro ADME
test parameters: cryopreserved hepatocytes, read-out: CLint hHep
hepatocyte CLint at 1 µM values for the compounds below.
// return the numeric value with its unit appended

INSERT INTO results (compound, readout_value) VALUES
  ('O=C(Nc1scc(C2CCc3ccccc3C2)c1C(=O)O)c1ccccc1 (racemic) [dEF2905]', '65 µL/min/1e6 cells');

hepatocyte CLint at 1 µM for COc1ccc(C(=O)Nc2sc3c(c2C(=O)O)CCC(C)(C)C3)cc1OC ?
31 µL/min/1e6 cells

Ok, now O=C(Nc1scc(C2CCc3ccccc3C2)c1C(=O)O)c1ccccc1 (stereo not drawn) [dEF3122]
19 µL/min/1e6 cells

* * *

Tested on: influenza A H1N1 virus
test parameters: 22,2 µM peptide, 48 hr post-treatment, A549
The entries below come with measured Neuraminidase activity normalized to vehicle values attached.

Please review the following examples before continuing.
INSERT INTO assay_data (substance, tested_system, readout_value) VALUES
  ('RTYGTWEDLFCDESL [CPEP128]', 'influenza A H1N1 virus', '1,0305'),
  ('CPEP126: peptide of the viral peptide library; sequence page not shown (TQNLYPDLSEIKK)', 'influenza A H1N1 virus', '0,8904'),
  ('CPEP127: peptide of the viral peptide library; sequence page not shown (LVKPTVYVYSR)', 'influenza A H1N1 virus', '0,8705'),
  ('DLYCYEQLNDSSEEEDE [CPEP125]', 'influenza A H1N1 virus', '1,1403'),
  ('GARASVLS [CPEP108]', 'influenza A H1N1 virus', '0,9027');

State the recorded Neuraminidase activity normalized to vehicle for this entry: LGQGVSIEW [CPEP122]
0,854

Further, for MSSDLRLTLLELVRRL [CPEP66] ?
1,2015

Let us now turn to WGCSGKLICTTTVPW [CPEP84]
0,9299

WKSKKTP [CPEP78] , same question.
0,8841

Next up: CPEP74: peptide of the viral peptide library; sequence page not shown (ALGISYGRKKRRQ)
0,9469

Data origin, for the record: paper PMC10835127
